Tested on: ATP phosphoribosyltransferase (HisG)
Experimental Details: Measurement of activities of ATP phosphoribosyltransferases (UV 290 nm, cell supernatant)
Type: biochemical, Corynebacterium glutamicum
Condition Details: 30° C., UV 290 nm, no L-histidine
Reported Property: Activity of ATP phosphoribosyltransferase (HisG) (U/mg)

- Molecule: "HisG (N215K/G233H/T235Q): ATP phosphoribosyltransferase variant N215K/G233H/T235Q (protein) MLKIAVPNKGSLSERAMEILAEAGYAGRGDSKSLNVFDEANNVEFFFLRPKDIAIYVAGGQLDLGITGRDLARDSQADVHEVLSLGFGSSTFRYAAPADEEWSIEKLDGKRIATSYPNLVRDDLAARGLSAEVLRLDGAVEVSIKLGVADAIADVVSTGRTLRQQGLAPFGEVLCTSEAVIVGRKDEKVTPEQQILLRRIQGILHAQNFLMLDYKVDRDNLDAATAVTPGLSHPQVSPLARDNWVAVRAMVPRRSANAIMDKLAGLGAEAILASEIRIARI"
  Scale Unit: "U/mg"
  Obs Value: 1.3

Data provenance: patent US11098333B2
